Test system: Zika virus
Assay: Antiviral activity against Zika virus PRABC59 infected in human HEK293 cells assessed as reduction of virus load measured at 3 days post-infection by focus-forming assay
Type: functional
Conditions: PRABC59, HEK293, 72 h, time 3 day
quantityKind: EC90 (nM)

substanceSmiles: CSc1ncccc1C(=O)Nc1nc(-c2cc(Nc3ccc(C#N)cc3)cc(N3CCOCC3)c2)cs1
resultValue: 800
--
substanceSmiles: COc1cc(Nc2cccc(-c3csc(NC(=O)c4cccnc4SC)n3)c2)ccc1C#N
resultValue: 500
--
substanceSmiles: CSc1ncccc1C(=O)Nc1nc(-c2cccc(-c3cccc(C#N)c3)c2)cs1
resultValue: 300
--
substanceSmiles: CCOC(=O)N1CCN(c2cc(-c3ccc(C#N)cc3)cc(-c3csc(NC(=O)c4cccnc4SC)n3)c2)CC1
resultValue: 150
--
substanceSmiles: CSc1ncccc1C(=O)Nc1nc(-c2cccc(Nc3ccc(C#N)cc3)c2)cs1
resultValue: 170
--
substanceSmiles: CSc1ncccc1C(=O)Nc1nc(-c2cccc(Nc3cccc(C#N)c3)c2)cs1
resultValue: 400

###

Assay: Cytotoxicity against African green monkey VeroE6 cells assessed as reduction in cell viability incubated for 72 hrs by CellTiter Glo luminescence analysis
Assay type: toxicity, cell-based, Vero C1008
Conditions: chlorocebus sabaeus
quantityKind: CC50 at 72 h

substanceSmiles: CSc1ncccc1C(=O)Nc1nc(-c2ccc3ccccc3c2)cs1
resultValue: 107 µM

###

Assay: Bioavailability in C57BL/6 mouse at 40 mg/kg, ip
Type: ADME, organism-based
Details: in vivo

substanceSmiles: CSc1ncccc1C(=O)Nc1nc(-c2cccc(Nc3ccc(C#N)cc3)c2)cs1
bioavailability [%]: 91

###

Test: Kinetic solubility of the compound in simulated intestinal fluid at pH 7.5 by LC-MS analysis
Format: physicochemical
Settings: read-out: Kinetic_solubility
# solubility kinetic values compiled below

substanceSmiles: Cc1ncccc1C(=O)Nc1nc(-c2ccc3ccccc3c2)cs1
unitsOfMeasure: µM
boundSign: =
solubility kinetic: 3

substanceSmiles: CSc1ncccc1C(=O)Nc1nc(-c2cccc(-c3ccccn3)c2)cs1
unitsOfMeasure: µM
boundSign: <
solubility kinetic: 1

substanceSmiles: CC(C)(C(=O)O)c1ccc(C(=O)Nc2nc(-c3ccc4ccccc4c3)cs2)cc1
unitsOfMeasure: µM
boundSign: =
solubility kinetic: 64

substanceSmiles: CSc1ncccc1C(=O)Nc1nc(-c2cccc(Nc3ccc(C#N)cc3)c2)cs1
unitsOfMeasure: µM
boundSign: <
solubility kinetic: 1

substanceSmiles: CC(C)(C)c1ccc(C(=O)Nc2nc(-c3ccc4ccccc4c3)cs2)cc1
unitsOfMeasure: µM
boundSign: <
solubility kinetic: 1

substanceSmiles: CSc1ncccc1C(=O)Nc1nc(-c2cc(F)cc(-c3ccc(C#N)cc3)c2)cs1
unitsOfMeasure: µM
boundSign: <
solubility kinetic: 1

substanceSmiles: CSc1ncccc1C(=O)Nc1nc(-c2cc(Nc3ccc(C#N)cc3)cc(N3CCOCC3)c2)cs1
unitsOfMeasure: µM
boundSign: <
solubility kinetic: 1

substanceSmiles: CC(C)(C#N)c1ccc(C(=O)Nc2nc(-c3ccc4ccccc4c3)cs2)cc1
unitsOfMeasure: µM
boundSign: <
solubility kinetic: 1

substanceSmiles: CSc1ncccc1C(=O)Nc1nc(-c2cccc(-c3ccc(C#N)cc3)c2)cs1
unitsOfMeasure: µM
boundSign: <
solubility kinetic: 1

substanceSmiles: CSc1ncccc1C(=O)Nc1nc(-c2cccc(Nc3ccc(C#N)cn3)c2)cs1
unitsOfMeasure: µM
boundSign: <
solubility kinetic: 1

substanceSmiles: CSc1ncccc1C(=O)Nc1nc(-c2cccc(Nc3ccc(C#N)c(O)c3)c2)cs1
unitsOfMeasure: µM
boundSign: =
solubility kinetic: 1

substanceSmiles: CSc1ncccc1C(=O)Nc1nc(-c2cccc(Nc3ccc(CN)cc3)c2)cs1
unitsOfMeasure: µM
boundSign: =
solubility kinetic: 33

substanceSmiles: CSc1ncccc1C(=O)Nc1nc(-c2cccc(-c3ccc(C#N)c(O)c3)c2)cs1
unitsOfMeasure: µM
boundSign: =
solubility kinetic: 3

substanceSmiles: CSc1ncccc1C(=O)Nc1nc(-c2cccc(Nc3ccc(C#N)c(C(=O)O)c3)c2)cs1
unitsOfMeasure: µM
boundSign: =
solubility kinetic: 84

substanceSmiles: CCOC(=O)N1CCN(c2cc(-c3ccc(C#N)cc3)cc(-c3csc(NC(=O)c4cccnc4SC)n3)c2)CC1
unitsOfMeasure: µM
boundSign: <
solubility kinetic: 1

substanceSmiles: CSc1ncccc1C(=O)Nc1nc(-c2ccc3ncccc3c2)cs1
unitsOfMeasure: µM
boundSign: =
solubility kinetic: 56

substanceSmiles: CSc1ncccc1C(=O)Nc1nc(-c2ccc3ccccc3c2)cs1
unitsOfMeasure: µM
boundSign: <
solubility kinetic: 1
